Hey, just so you know, these numbers are from ChEMBL document CHEMBL1145751.

Assay: Fold selectivity for classIIa HDAC
reported.endpoint: Fold selectivity
Form rule: numeric answer, no unit written next to it.

Completed entries (count: 4):
[
  {
    "smiles.structure": "Cc1ccccc1C(=O)/C=C/c1cc(/C=C/C(=O)NO)n(C)c1",
    "observed": 7
  },
  {
    "smiles.structure": "Cc1ccc(C(=O)/C=C/c2cc(/C=C/C(=O)NO)n(C)c2)cc1",
    "observed": 10
  },
  {
    "smiles.structure": "Cn1cc(/C=C/C(=O)c2ccccc2Cl)cc1/C=C/C(=O)NO",
    "observed": 32
  },
  {
    "smiles.structure": "Cc1cccc(C(=O)/C=C/c2cc(/C=C/C(=O)NO)n(C)c2)c1",
    "observed": 12
  }
]

// Cn1cc(/C=C/C(=O)c2cccc(Cl)c2)cc1/C=C/C(=O)NO : Fold selectivity value = 78

* * *

# Lookup of reported EC50 keyed by entry
Target: Protein deacetylase HDAC6 (Homo sapiens, UniProt Q9UBN7)
Sequence (Q9UBN7 whole entry): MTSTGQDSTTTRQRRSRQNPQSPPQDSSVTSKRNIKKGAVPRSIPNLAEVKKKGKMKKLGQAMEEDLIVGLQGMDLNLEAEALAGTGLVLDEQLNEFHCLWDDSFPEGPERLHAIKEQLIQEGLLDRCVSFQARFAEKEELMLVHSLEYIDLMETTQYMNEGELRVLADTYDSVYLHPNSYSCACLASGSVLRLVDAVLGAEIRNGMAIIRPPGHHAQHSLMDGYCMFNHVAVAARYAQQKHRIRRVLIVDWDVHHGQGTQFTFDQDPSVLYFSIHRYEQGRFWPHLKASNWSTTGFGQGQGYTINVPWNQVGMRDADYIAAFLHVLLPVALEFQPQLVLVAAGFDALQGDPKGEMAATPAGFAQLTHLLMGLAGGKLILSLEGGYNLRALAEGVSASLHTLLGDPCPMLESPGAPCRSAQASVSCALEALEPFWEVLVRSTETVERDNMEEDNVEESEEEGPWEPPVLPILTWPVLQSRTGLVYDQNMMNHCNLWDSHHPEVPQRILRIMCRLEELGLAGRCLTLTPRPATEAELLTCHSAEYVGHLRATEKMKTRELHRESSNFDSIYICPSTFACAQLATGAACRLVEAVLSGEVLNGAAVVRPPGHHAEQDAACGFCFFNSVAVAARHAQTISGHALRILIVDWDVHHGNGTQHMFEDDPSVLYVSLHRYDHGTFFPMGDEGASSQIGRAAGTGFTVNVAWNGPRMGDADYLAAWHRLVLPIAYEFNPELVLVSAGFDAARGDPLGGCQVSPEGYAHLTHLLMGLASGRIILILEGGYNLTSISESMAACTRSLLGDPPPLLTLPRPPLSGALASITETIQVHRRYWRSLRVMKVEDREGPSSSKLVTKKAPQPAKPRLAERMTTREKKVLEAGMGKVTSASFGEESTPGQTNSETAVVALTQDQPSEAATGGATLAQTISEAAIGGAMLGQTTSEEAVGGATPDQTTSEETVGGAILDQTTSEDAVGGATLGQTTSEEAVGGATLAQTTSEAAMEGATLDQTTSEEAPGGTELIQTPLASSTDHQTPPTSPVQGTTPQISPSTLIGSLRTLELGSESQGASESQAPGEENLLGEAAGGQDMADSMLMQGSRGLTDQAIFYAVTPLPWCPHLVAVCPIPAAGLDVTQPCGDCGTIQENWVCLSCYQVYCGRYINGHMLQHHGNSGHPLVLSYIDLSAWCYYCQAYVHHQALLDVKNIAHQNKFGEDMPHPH
Assay: Tested for inhibition of Histone deacetylase 6 induced acetylated tubulin in mammalian cells.
Non-standard residues stand in square brackets, D forms with d. Residues, ends and D or L forms follow the SMILES beside them. ξ: configuration not given here. Aoe(9ξ) = N[C@@H](CCCCCC(=O)C1CO1)C(=O)O; dPip = O=C(O)[C@H]1CCCCN1
Enter your answer as a number in µM; do not include the unit.

Use the examples below as a reference point.
[
  {
    "compound": "C[C@@H]1NC(=O)[C@H](CCCCCC(=O)C2CO2)NC(=O)[C@H]2CCCN2C(=O)[C@H](C)NC1=O (stereo partly drawn)",
    "observed": 360
  },
  {
    "compound": "O=C(CCCCC[C@@H]1NC(=O)[C@H]2CCCCN2C(=O)[C@H](Cc2ccccc2)NC(=O)[C@H](Cc2ccccc2)NC1=O)C1CO1 (stereo partly drawn) [TRAPOXIN A] (cyclo(FF[dPip][Aoe(9ξ)]))",
    "observed": 524
  }
]

The reported value for C[C@@H]1NC(=O)[C@H](CCCCCC(=O)NO)NC(=O)[C@H]2CCCN2C(=O)[C@H](C)NC1=O in terms of EC50 is 19

* * *

Entries with their measured IC50, system UniProtKB Q94F81:
Express your answer in µM, writing the number without its unit.

[
  {
    "smiles.structure": "Cc1cccc(C(=O)/C=C/c2cc(/C=C/C(=O)NO)n(C)c2)c1",
    "unit.info": "µM",
    "IC50": 7.9
  },
  {
    "smiles.structure": "Cc1ccc(C(=O)/C=C/c2cc(/C=C/C(=O)NO)n(C)c2)cc1",
    "unit.info": "µM",
    "IC50": 10.2
  },
  {
    "smiles.structure": "Cc1ccccc1C(=O)/C=C/c1cc(/C=C/C(=O)NO)n(C)c1",
    "unit.info": "µM",
    "IC50": 0.27
  }
]

Now turn to the next compound.
So the reported IC50 for Cn1cc(/C=C/C(=O)c2ccc(Cl)cc2)cc1/C=C/C(=O)NO , on UniProtKB Q94F81, turned out to be 25.2

* * *

Biological target: Histone deacetylase 1 (Homo sapiens)
Sequence (Q13547 whole entry): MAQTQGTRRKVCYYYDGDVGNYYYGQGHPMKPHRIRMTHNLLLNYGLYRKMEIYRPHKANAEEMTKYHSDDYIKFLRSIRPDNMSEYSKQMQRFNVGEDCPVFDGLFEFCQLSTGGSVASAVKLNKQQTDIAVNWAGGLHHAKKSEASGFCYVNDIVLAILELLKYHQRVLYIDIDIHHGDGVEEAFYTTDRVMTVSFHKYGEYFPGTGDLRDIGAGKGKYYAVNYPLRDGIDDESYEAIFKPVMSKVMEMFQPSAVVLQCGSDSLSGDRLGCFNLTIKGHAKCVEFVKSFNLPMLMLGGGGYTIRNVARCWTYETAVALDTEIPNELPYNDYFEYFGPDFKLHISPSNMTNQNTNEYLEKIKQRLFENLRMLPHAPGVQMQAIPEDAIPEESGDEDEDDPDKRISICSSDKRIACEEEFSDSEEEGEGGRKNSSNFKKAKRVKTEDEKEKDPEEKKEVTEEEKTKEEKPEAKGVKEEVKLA
Assay: Inhibition of Histone deacetylase 1 induced acetylated histone in mammalian cells
Type: cell-based
Non-standard residues stand in square brackets, D forms with d. Residues, ends and D or L forms follow the SMILES beside them. ξ: configuration not given here. Aoe(9ξ) = N[C@@H](CCCCCC(=O)C1CO1)C(=O)O; dPip = O=C(O)[C@H]1CCCCN1
reported.endpoint: pEC50
Note on pEC50: it is the negative log10 of concentration, concentration in mol/L.

Measured pEC50 (Histone deacetylase 1 (Homo sapiens)), entry O=C(CCCCC[C@@H]1NC(=O)[C@H]2CCCCN2C(=O)[C@H](Cc2ccccc2)NC(=O)[C@H](Cc2ccccc2)NC1=O)C1CO1 (stereo partly specified) [TRAPOXIN A] (cyclo(FF[dPip][Aoe(9ξ)])) : 6.09
